# ASSAYED_TARGET: CHIKV nsP2 ATPase (Chikungunya virus)
# Sequence (Q8JUX6 536-1333): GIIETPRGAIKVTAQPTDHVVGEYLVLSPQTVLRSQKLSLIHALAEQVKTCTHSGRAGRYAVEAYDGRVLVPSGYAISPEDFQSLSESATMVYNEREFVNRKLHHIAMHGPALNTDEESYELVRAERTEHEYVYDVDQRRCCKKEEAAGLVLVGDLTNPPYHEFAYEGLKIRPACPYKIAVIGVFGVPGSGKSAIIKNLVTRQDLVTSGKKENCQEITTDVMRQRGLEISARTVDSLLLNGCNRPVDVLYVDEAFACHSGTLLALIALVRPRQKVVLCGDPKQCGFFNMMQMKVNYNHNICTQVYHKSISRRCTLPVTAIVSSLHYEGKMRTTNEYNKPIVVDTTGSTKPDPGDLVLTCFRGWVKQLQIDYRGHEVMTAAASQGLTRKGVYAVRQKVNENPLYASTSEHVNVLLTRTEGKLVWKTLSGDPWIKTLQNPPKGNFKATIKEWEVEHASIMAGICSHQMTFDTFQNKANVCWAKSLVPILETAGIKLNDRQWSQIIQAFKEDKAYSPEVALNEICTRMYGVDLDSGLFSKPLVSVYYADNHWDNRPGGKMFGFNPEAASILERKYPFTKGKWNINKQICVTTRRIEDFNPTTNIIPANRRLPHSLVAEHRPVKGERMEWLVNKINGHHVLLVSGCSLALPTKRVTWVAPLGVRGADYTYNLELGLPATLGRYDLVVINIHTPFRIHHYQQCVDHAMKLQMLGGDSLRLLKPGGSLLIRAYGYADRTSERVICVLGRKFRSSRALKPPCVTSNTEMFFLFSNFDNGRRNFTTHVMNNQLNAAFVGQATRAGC
# METHOD_SUMMARY: High throughput nsP2 ATPase activity assay (Malachite Green)
# CONDITION_INFO: read-out: Malachite Green % INHIBITION (ORIGINAL)
Classification field: Criterion met = inhibition at 25 µM at or over 70%; Criterion not met = inhibition at 25 µM under 70%.

query: Evaluate `O=c1cc(-c2ccc(O)c(O)c2)oc2cc(O)cc(O)c12` : inhibition at 25 µM at minimum 70%?
result: Criterion not met

* * *

# ASSAYED_TARGET: CHIKV nsP2 ATPase (Chikungunya virus)
# METHOD_SUMMARY: Secondary CHIKV nsP2 ATPase assay (ADP-Glo)
# CONDITION_INFO: ADP-Glo dose response, Avge n=2
MEASUREMENT_LABEL: Hill slope
Give a plain numeric answer without units written out.

The compound COc1ccc(OC)c(N2C(=O)/C(=C/c3ccco3)C(=O)NC2=S)c1 [RA-0001798] showed Hill slope equal to 1.4

The compound Cc1ncc2c(n1)COC21CN(C(=O)C2(c3ccccc3)CCCC2)C1 [RA-0001824] showed Hill slope equal to 0.43

The compound Cc1ccc(N2C(=O)/C(=C/C=C/c3ccco3)C(=O)NC2=S)cc1 [RA-0001799] showed Hill slope equal to 2.8

The compound Cc1ccnc(OC2CCOC3(CCN(C(=O)C4(c5ccccc5)CCCC4)CC3)C2)c1 (stereo not drawn) [RA-0001821] showed Hill slope equal to 1.25

The compound CCCC(C(=O)O)N1C(=O)/C(=C/c2ccc(-c3ccc(Br)cc3)o2)SC1=S (stereo not drawn) [RA-0001801] showed Hill slope equal to 1.4

The compound O=C1c2oc3ccccc3c(=O)c2C(c2ccc(O)cc2)N1Cc1ccccc1Cl (stereo not drawn) [RA-0001802] showed Hill slope equal to 1

The compound O=c1c(O)c(-c2ccc(O)c(O)c2)oc2cc(O)cc(O)c12 [RA-0001795] showed Hill slope equal to 0.7

The compound COc1cc(Cl)c(NS(=O)(=O)c2c(C)sc(C)c2-c2[nH]nc(C)c2C)c(OC)c1 [RA-0001819] showed Hill slope equal to 0.7

* * *

# ASSAYED_TARGET: CHIKV nsP2 ATPase (Chikungunya virus)
# METHOD_SUMMARY: High throughput nsP2 ATPase activity assay (Malachite Green)
# CONDITION_INFO: read-out: Malachite Green % INHIBITION (RESCREEN)
Classification field: Condition met = inhibition at 25 µM at or over 60%; Condition not met = inhibition at 25 µM under 60%.

query: Evaluate O=c1cc(-c2ccc(O)c(O)c2)oc2cc(O)cc(O)c12 [RA-0001820] : inhibition at 25 µM at minimum 60%?
result: Condition met

* * *

# ASSAYED_TARGET: CHIKV nsP2 ATPase (Chikungunya virus)
# METHOD_SUMMARY: High throughput nsP2 ATPase activity assay (Malachite Green)
# CONDITION_INFO: read-out: Malachite Green % INHIBITION (ORIGINAL)
Classification field: TRUE = inhibition at 25 µM at or over 60%; FALSE = inhibition at 25 µM under 60%.

Check out these entries, answers already filled in.
> print(dat)
                                   molecule  assigned.class
1  COc1cc(Cl)c(NS(=O)(=O)c2c(C)sc(C)c2-c2[nH]nc(C)c2C)c(OC)c1            TRUE
2     Fc1cccc(CSC2=NC3(CCCCC3)Nc3ccccc32)c1            TRUE
3  COc1ccc(OC)c(N2C(=O)/C(=C/c3ccco3)C(=O)NC2=S)c1            TRUE
4  Cc1c(Cl)ccc2c1NC(C(=O)O)C1CC=CC21 (centres unmarked)            TRUE
5  Cc1ccc(N2C(=O)/C(=C/C=C/c3ccco3)C(=O)NC2=S)cc1            TRUE

query: Evaluate CCCC(C(=O)O)N1C(=O)/C(=C/c2ccc(-c3ccc(Br)cc3)o2)SC1=S (centres unmarked) : inhibition at 25 µM at minimum 60%?
result: TRUE

query: Evaluate Cc1ccnc(OC2CCOC3(CCN(C(=O)C4(c5ccccc5)CCCC4)CC3)C2)c1 (centres unmarked) : inhibition at 25 µM at minimum 60%?
result: TRUE

query: Evaluate `N#Cc1c(SCc2cccc(F)c2)nsc1SCc1cccc(F)c1` : inhibition at 25 µM at minimum 60%?
result: FALSE

* * *

Entries annotated with measured Hill slope
# ASSAYED_TARGET: CHIKV nsP2 ATPase (Chikungunya virus)
# METHOD_SUMMARY: Secondary CHIKV nsP2 ATPase assay (ADP-Glo)
# CONDITION_INFO: ADP-Glo dose response, Avge n=2
Give a plain numeric answer without units written out.

> print(dat)
                                   compound  quantitative.readout
1  N#Cc1c(SCc2ccccc2)cc(SCc2ccccc2)cc1SCc1ccccc1 [RA-0001807]                     2
2  O=C(CN1C(=O)C2C3CCC(C3)C2C1=O)OCC(=O)c1ccc(Cl)cc1 (stereo not shown) [RA-0001796]                   0.6
3  N#Cc1c(SCc2ccccc2Cl)nsc1SCc1ccccc1Cl [RA-0001804]                  2.35

Then there is this compound:
The compound Cc1nc(CC2CCOC3(CCN(C(=O)C4(c5ccccc5)CCCC4)CC3)C2)no1 (stereo not shown) [RA-0001823] showed Hill slope equal to 0.87

* * *

# ASSAYED_TARGET: CHIKV nsP2 ATPase (Chikungunya virus)
# METHOD_SUMMARY: High throughput nsP2 ATPase activity assay (Malachite Green)
# CONDITION_INFO: read-out: Malachite Green % INHIBITION (RESCREEN)
MEASUREMENT_LABEL: inhibition at 25 µM
Dear colleague, please send the value followed by its unit.

> print(dat)
                                   molecule  result
1  Cc1ccnc(OC2CCOC3(CCN(C(=O)C4(c5ccccc5)CCCC4)CC3)C2)c1 (stereo not drawn)     65%
2  Fc1cccc(Cl)c1Cn1cccc1C1=NC(CSCc2ccccc2)CO1 (stereo not drawn)     56%
3  O=C(CSc1nnc2c(=O)n(-c3cccc(F)c3)ccn12)c1c[nH]c2ccccc12    145%
4  Cc1ncc2c(n1)COC21CN(C(=O)C2(c3ccccc3)CCCC2)C1     69%
5  N#Cc1c(SCc2ccccc2)cc(SCc2ccccc2)cc1SCc1ccccc1     60%
6  CS(=O)(=O)NCC1CCOC2(CCN(C(=O)C3(c4ccccc4)CCCC3)CC2)C1 (stereo not drawn)     81%
7  COc1cc(Cl)c(NS(=O)(=O)c2c(C)sc(C)c2-c2[nH]nc(C)c2C)c(OC)c1     72%
8  O=c1c(O)c(-c2ccc(O)c(O)c2)oc2cc(O)cc(O)c12     55%

The molecule `N#Cc1c(SCc2cccc(F)c2)nsc1SCc1cccc(F)c1` showed inhibition at 25 µM equal to 51%

* * *

# ASSAYED_TARGET: CHIKV nsP2 ATPase (Chikungunya virus)
# METHOD_SUMMARY: High throughput nsP2 ATPase activity assay (Malachite Green)
# CONDITION_INFO: read-out: Malachite Green % INHIBITION (ORIGINAL)
Consider the reported inhibition at 25 µM of an entry and match it to a band in zone 1 (below 50%), zone 2 (50% to below 70%), zone 3 (70% or more)

Check out these entries, answers already filled in.
> print(dat)
                                   compound  assigned.class
1    Cc1cccc(CSc2nsc(SCc3cccc(C)c3)c2C#N)c1          zone 2
2  CS(=O)(=O)NCC1CCOC2(CCN(C(=O)C3(c4ccccc4)CCCC3)CC2)C1 (stereo not drawn)          zone 3
3      Brc1ccc(-c2csc(N3CCc4ccccc4C3)n2)cc1          zone 2
4  Cc1ncc2c(n1)COC21CN(C(=O)C2(c3ccccc3)CCCC2)C1          zone 3
5  N#Cc1c(SCc2ccccc2)cc(SCc2ccccc2)cc1SCc1ccccc1          zone 1

query: Field: class (inhibition at 25 µM) — entry: CC1SC2(C(=O)Nc3ccccc32)N(CCc2c[nH]c3ccccc23)C1=O (stereo not drawn)
result: zone 2

query: Field: class (inhibition at 25 µM) — entry: `O=c1c(O)c(-c2ccc(O)c(O)c2)oc2cc(O)cc(O)c12`
result: zone 2

query: Field: class (inhibition at 25 µM) — entry: O=C(CN1C(=O)C2C3CCC(C3)C2C1=O)OCC(=O)c1ccc(Cl)cc1 (stereo not drawn)
result: zone 2

query: Field: class (inhibition at 25 µM) — entry: Cc1nc(CC2CCOC3(CCN(C(=O)C4(c5ccccc5)CCCC4)CC3)C2)no1 (stereo not drawn)
result: zone 3

query: Field: class (inhibition at 25 µM) — entry: Fc1cccc(Cl)c1Cn1cccc1C1=NC(CSCc2ccccc2)CO1 (stereo not drawn)
result: zone 1

query: Field: class (inhibition at 25 µM) — entry: CSc1ccc(Cn2cccc2C2=NC(CSCc3ccc(F)cc3)CO2)cc1 (stereo not drawn)
result: zone 1

query: Field: class (inhibition at 25 µM) — entry: `N#Cc1c(SCc2ccccc2Cl)nsc1SCc1ccccc1Cl`
result: zone 2

query: Field: class (inhibition at 25 µM) — entry: O=C1c2oc3ccccc3c(=O)c2C(c2ccc(O)cc2)N1Cc1ccccc1Cl (stereo not drawn)
result: zone 1

query: Field: class (inhibition at 25 µM) — entry: `Clc1cccc(CSC2=NC3(CCCCC3)Nc3ccccc32)c1`
result: zone 3

query: Field: class (inhibition at 25 µM) — entry: O=C(C1CCCN(c2ccc(Sc3ccc(Br)cc3)nn2)C1)N1CCSCC1 (stereo not drawn)
result: zone 2
